System: Yap1 mRNA
ASSAY_TEXT: Dose-dependent inhibition of human Yap1 in A-431 cells (Example 8, 10,000 cells per well, RTS4814)
Assay type: cell-based
CONDITION_INFO: A-431 cells, free uptake, approximately 48 hours, RTS4814; linear regression on log/linear plot
Strand notation (5' to 3'): a small letter for the sugar, then the base; units joined by * are phosphorothioate-linked, units joined directly phosphodiester-linked; [ ] holds rarer units or linkages, { } end groups; capitals alone tell only the bases. k = constrained ethyl (cEt); [5mC] = 5-methylcytosine; d = 2'-deoxy (DNA)
MEASURED_ATTRIBUTE: IC50 (nM)

# SUBSTANCE, TEST_SYSTEM, INEQUALITY_SIGN, TEST_RESULT
rows = [
    ("1074351 (antisense kA*kT*kG*d[5mC]*dT*dT*dA*dG*dT*d[5mC]*d[5mC]*dA*d[5mC]*kT*kG*kT) [compound 1074351]", "Yap1 mRNA", "=", 100),
    ("1076327 (kG*kA*kT*dA*dA*dG*d[5mC]*dA*dA*dG*dG*dT*dT*k[5mC]*kT*k[5mC]; antisense) [compound 1076327]", "Yap1 mRNA", "=", 100),
    ("1075246 (kG*kA*kT*dA*dA*d[5mC]*dT*dA*dG*dT*dA*dA*d[5mC]*k[5mC]*kG*kT; antisense) [compound 1075246]", "Yap1 mRNA", "=", 100),
    ("1076481 (k[5mC]*kT*kA*dA*dG*dT*dA*dA*dG*dG*dT*dT*dT*k[5mC]*k[5mC]*k[5mC]) [compound 1076481]", "Yap1 mRNA", "<", 20),
    ("1076399 (antisense kG*kA*kT*dA*dA*d[5mC]*dT*dT*dA*dG*dA*dG*dA*kT*kG*kT) [compound 1076399]", "Yap1 mRNA", "=", 40),
    ("1075052 (antisense kA*kT*kA*dT*dA*dT*dA*d[5mC]*dT*dT*dG*dA*dT*k[5mC]*k[5mC]*kA) [compound 1075052]", "Yap1 mRNA", "<", 20),
    ("1075712 (kG*kA*k[5mC]*dG*d[5mC]*dG*dA*dA*dA*dT*dA*d[5mC]*dT*kT*kA*k[5mC]; antisense) [compound 1075712]", "Yap1 mRNA", "=", 100),
    ("1074672 (antisense k[5mC]*k[5mC]*kA*dA*dG*dT*dA*dG*d[5mC]*dT*dT*dT*dG*kA*kT*k[5mC]) [compound 1074672]", "Yap1 mRNA", "<", 20),
    ("1074420 (kG*kA*kT*dT*d[5mC]*dT*dT*dT*dA*dG*dA*dG*d[5mC]*k[5mC]*kA*kA; antisense) [compound 1074420]", "Yap1 mRNA", "<", 20),
    ("1076449 (k[5mC]*k[5mC]*kT*dT*dA*dT*dA*dA*dT*dG*d[5mC]*dA*dA*kT*k[5mC]*k[5mC]; antisense) [compound 1076449]", "Yap1 mRNA", "<", 20),
    ("1074595 (DNA kT*kA*kG*dA*dA*dG*dT*dA*dG*dG*dA*dG*d[5mC]*kA*kA*kG; antisense) [compound 1074595]", "Yap1 mRNA", "=", 40),
    ("1076291 (kG*kA*kT*dT*dA*dA*dT*dG*dG*dT*dG*dG*d[5mC]*kA*kT*kT; antisense) [compound 1076291]", "Yap1 mRNA", "=", 100),
    ("1075810 (kG*kT*kA*dG*d[5mC]*dA*dA*dT*dA*dG*dA*dG*dT*kA*kA*k[5mC]; antisense) [compound 1075810]", "Yap1 mRNA", "=", 100),
]
